Values were extracted from patent US12331057B2.

tested system: NL20 human bronchial epithelial cells expressing human Z-AAT (Homo sapiens, UniProt P01009, E366K)
Sequence (P01009 25-418 E366K): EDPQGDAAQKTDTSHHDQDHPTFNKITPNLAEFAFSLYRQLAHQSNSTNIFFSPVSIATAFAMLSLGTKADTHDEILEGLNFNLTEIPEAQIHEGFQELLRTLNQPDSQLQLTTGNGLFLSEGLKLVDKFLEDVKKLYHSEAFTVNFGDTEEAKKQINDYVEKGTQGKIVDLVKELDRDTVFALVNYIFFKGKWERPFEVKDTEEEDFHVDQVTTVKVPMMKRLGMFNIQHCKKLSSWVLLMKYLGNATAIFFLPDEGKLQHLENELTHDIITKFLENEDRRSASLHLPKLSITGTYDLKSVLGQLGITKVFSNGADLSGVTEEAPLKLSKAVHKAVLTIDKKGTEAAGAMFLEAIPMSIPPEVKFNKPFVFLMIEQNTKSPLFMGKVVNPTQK
experimental protocol: AAT Function Assay (MSD Assay NL20-SI Cell Line)
condition context: functionally active AAT in supernatant of NL20 cells expressing human Z-AAT, MSD readout; read-out: NL20 Func. (EC50)
pEC50: −log10 of the molar value.
recorded metric: pEC50

Some solved entries appear below for comparison.
CCC1(c2c(-c3cnn(CC(N)=O)c3)c3cc4[nH]ncc4cc3n2-c2ccc(F)cc2)COC1	< 6.00
COCC(C)(C)c1c(-c2ccc(C(=O)O)cc2)c2nc3[nH]ncc3cc2n1-c1ccc(F)cc1	< 6.00
COc1cc(-n2c(C(C)(C)CC#N)c(-c3ccc(C(=O)O)cc3)c3cc4[nH]ncc4cc32)ccn1	< 6.00

query: Return reported pEC50; argument: COCC(C)(C)c1c(-c2ccc(C(=O)NC3CCNC(=O)C3)cc2)c2cc3[nH]ncc3cc2n1-c1ccc(F)cc1 (stereo not shown)
result: < 6.00

query: Fill in: pEC50 of `Cc1cc(-c2c(C3CCOCC3)n(-c3ccc(F)cc3)c3cc4cn[nH]c4cc23)cnc1C(N)=O` is ___
result: 6.00 to 6.40

query: Return reported pEC50; argument: `Cc1c(C(=O)O)cccc1-c1c(C(C)C)n(-c2ccc(F)cc2)c2cc3cn[nH]c3cc12`
result: > 6.40

query: pEC50 for `COc1cc(C(=O)O)cnc1-c1c(C(C)C)n(-c2ccc(F)cc2)c2cc3cn[nH]c3cc12` ?
result: < 6.00
